target: human S1PR5 (Homo sapiens); construct: host or cells: CHO-K1; experiment: Intracellular Ca2+ release (FLIPR) agonist potency, S1P5; type: cell-based; settings: recombinant CHO-K1 cells expressing human S1PR5, aequorin, Gq/i5; Calcium 5 FLIPR; read-out: S1P5 EC50 range
Sequence (Q9H228 whole entry): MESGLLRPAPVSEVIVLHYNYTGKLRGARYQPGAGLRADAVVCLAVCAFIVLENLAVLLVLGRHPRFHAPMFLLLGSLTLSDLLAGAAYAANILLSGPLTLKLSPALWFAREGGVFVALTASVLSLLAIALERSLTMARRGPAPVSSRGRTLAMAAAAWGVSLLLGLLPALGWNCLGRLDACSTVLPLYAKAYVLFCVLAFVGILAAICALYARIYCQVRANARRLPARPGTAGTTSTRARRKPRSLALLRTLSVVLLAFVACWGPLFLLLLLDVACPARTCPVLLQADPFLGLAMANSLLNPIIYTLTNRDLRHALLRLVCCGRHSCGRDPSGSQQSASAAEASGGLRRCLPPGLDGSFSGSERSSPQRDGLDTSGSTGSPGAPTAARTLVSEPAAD
pEC50: −log10 of the molar value.
endpoint_label: pEC50

>  <compound>
CCc1cccc(F)c1COc1ccc2c(c1)OCC(N(C)CC(=O)O)C2 (centres unmarked) [Compound 72]

>  <target_under_test>
human S1PR5 (Homo sapiens)

>  <pEC50>
> 8.00

$$$$
>  <compound>
O=C(O)C1CN(C2COc3cc(OCc4ccccc4C(F)(F)F)ccc3C2)C1 (centres unmarked) [Compound 62]

>  <target_under_test>
human S1PR5 (Homo sapiens)

>  <pEC50>
7.00 to 8.00

$$$$

Endpoint output: pEC50 of CC(Oc1ccc2c(c1)OCC(N1CC(C(=O)O)C1)C2)c1ccccc1F (centres unmarked) [Compound 107] . Value?
5.00 to 6.00

Endpoint output: pEC50 of O=C(O)C1CN(C2COc3cc(OCc4cc(F)ccc4C(F)(F)F)ccc3C2)C1 (centres unmarked) [Compound 91] . Value?
6.00 to 7.00

Endpoint output: pEC50 of O=C(O)C1CN(C2COc3cc(C#Cc4cc(F)cc(F)c4)ccc3C2)C1 (centres unmarked) [Compound 27] . Value?
> 8.00

====

molecular target: human S1PR1 (Homo sapiens); construct: host or cells: CHO-K1; experiment: Intracellular Ca2+ release (FLIPR) agonist potency, S1P1; type: cell-based; settings: recombinant CHO-K1 cells expressing human S1PR1, aequorin, Gq/i5; Calcium 5 FLIPR; read-out: S1P1 EC50
Sequence (P21453 whole entry): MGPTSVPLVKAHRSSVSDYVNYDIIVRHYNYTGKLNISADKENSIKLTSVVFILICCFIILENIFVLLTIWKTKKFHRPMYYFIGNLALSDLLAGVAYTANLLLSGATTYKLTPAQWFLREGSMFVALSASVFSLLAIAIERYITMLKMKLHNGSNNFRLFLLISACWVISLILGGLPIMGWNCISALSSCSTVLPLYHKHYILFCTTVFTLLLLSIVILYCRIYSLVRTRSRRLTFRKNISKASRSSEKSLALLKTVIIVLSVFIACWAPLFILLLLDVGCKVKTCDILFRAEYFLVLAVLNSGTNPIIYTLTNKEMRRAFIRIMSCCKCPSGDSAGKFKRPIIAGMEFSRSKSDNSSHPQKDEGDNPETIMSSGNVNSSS
pEC50: −log10 of the molar value.
pEC50 overview

>  <compound>
COc1ccc(F)c(COc2ccc3c(c2)OCC(N2CC(C(=O)O)C2)C3)c1 (centres unmarked) [Compound 98]

>  <target_under_test>
human S1PR1 (Homo sapiens)

>  <result_value>
< 6.00

$$$$
>  <compound>
O=C(O)COC1CCc2cc(OCc3ccc(Cl)cc3Cl)ccc2C1 (centres unmarked) [Compound 162]

>  <target_under_test>
human S1PR1 (Homo sapiens)

>  <result_value>
< 6.00

$$$$

Endpoint output: pEC50 of CCC1(C(=O)O)CN([C@@H]2COc3cc(OCc4c(Cl)cccc4Cl)ccc3C2)C1 [Compound 140] . Value?
< 6.00

Endpoint output: pEC50 of CCc1cccc(Cl)c1COc1ccc2c(c1)CCC(NCCC(=O)O)C2 (centres unmarked) [Compound 6] . Value?
> 6.00

Endpoint output: pEC50 of O=C(O)COC1CCc2cc(OCc3ccccc3F)ccc2C1 (centres unmarked) [Compound 215] . Value?
< 6.00

====

Target: human S1PR4 (Homo sapiens, UniProt O95977)
Construct: host or cells: CHO-K1
Sequence (O95977 1-384): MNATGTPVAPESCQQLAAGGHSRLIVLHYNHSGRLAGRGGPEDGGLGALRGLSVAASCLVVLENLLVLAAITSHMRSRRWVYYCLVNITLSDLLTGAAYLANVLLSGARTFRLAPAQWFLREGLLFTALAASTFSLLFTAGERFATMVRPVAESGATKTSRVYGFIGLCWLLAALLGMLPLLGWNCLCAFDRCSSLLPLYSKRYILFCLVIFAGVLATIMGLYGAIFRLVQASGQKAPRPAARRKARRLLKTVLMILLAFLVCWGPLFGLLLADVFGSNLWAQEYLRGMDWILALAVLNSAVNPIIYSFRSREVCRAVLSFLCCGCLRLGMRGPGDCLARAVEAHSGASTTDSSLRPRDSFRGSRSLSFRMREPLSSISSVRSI
Assay: Intracellular Ca2+ release (FLIPR) agonist potency, S1P4
Type: cell-based
Settings: recombinant CHO-K1 cells expressing human S1PR4, aequorin, Gq/i5; Calcium 5 FLIPR; read-out: S1P4 EC50
endpoint_label: EC50

Reference set (5 entries):
>  <compound>
O=C(O)COC1CCc2cc(OCc3c(F)cccc3C(F)(F)F)ccc2C1 (centres unmarked)

>  <target_under_test>
human S1PR4 (Homo sapiens, UniProt O95977)

>  <EC50>
> 1 µM

$$$$
>  <compound>
O=C(O)C1CN(C2COc3cc(OCc4c(Cl)cccc4Cl)ccc3C2)C1 (single isomer, unassigned) [Compound 145]

>  <target_under_test>
human S1PR4 (Homo sapiens, UniProt O95977)

>  <EC50>
> 1 µM

$$$$
>  <compound>
CCc1cccc(F)c1COc1ccc2c(c1)OCC(N1CC(C(=O)O)C1)C2 (centres unmarked) [Compound 65]

>  <target_under_test>
human S1PR4 (Homo sapiens, UniProt O95977)

>  <EC50>
< 1 µM

$$$$
>  <compound>
CCc1cccc(F)c1COc1ccc2c(c1)OCC(N1CC(C(=O)O)C1)C2 (single isomer, unassigned) [Compound 146]

>  <target_under_test>
human S1PR4 (Homo sapiens, UniProt O95977)

>  <EC50>
< 1 µM

$$$$
>  <compound>
O=C(O)C1CN(C2COc3cc(OCCc4c(Cl)cccc4Cl)ccc3C2)C1 (centres unmarked)

>  <target_under_test>
human S1PR4 (Homo sapiens, UniProt O95977)

>  <EC50>
> 1 µM

$$$$

Consider the record given below.
Endpoint output: EC50 of Cc1ccccc1COc1ccc2c(c1)CCC(OCCC(=O)O)C2 (centres unmarked) . Value?
> 1 µM

====

target: human S1PR5 (Homo sapiens); construct: host or cells: CHO-K1; test: Intracellular Ca2+ release (FLIPR) agonist potency, S1P5; type: cell-based; conditions: recombinant CHO-K1 cells expressing human S1PR5, aequorin, Gq/i5; Calcium 5 FLIPR; read-out: S1P5 EC50 range
pEC50: −log10 of the molar value.
endpoint_label: pEC50

Reference set (10 entries):
>  <compound>
O=C(O)CNC1CCc2cc(OCc3c(Cl)cccc3Cl)ccc2C1 (stereo not drawn)

>  <pEC50>
> 8.00

$$$$
>  <compound>
O=C(O)CCNC1CCc2ccc(OCc3c(Cl)cccc3Cl)cc2C1 (stereo not drawn)

>  <pEC50>
5.00 to 6.00

$$$$
>  <compound>
CCc1cccc(Cl)c1COc1ccc2c(c1)OCC(N1CCC(C(=O)O)CC1)C2 (stereo not drawn)

>  <pEC50>
> 8.00

$$$$
>  <compound>
Cc1ccc(C(F)(F)F)c(COc2ccc3c(c2)CCC(OCC(=O)O)C3)c1 (stereo not drawn)

>  <pEC50>
5.00 to 6.00

$$$$
>  <compound>
CCc1cccc(Cl)c1COc1ccc2c(c1)CCC(OCC(=O)O)C2 (single isomer, unassigned) [Compound 239]

>  <pEC50>
6.00 to 7.00

$$$$
>  <compound>
O=C(O)CCOC1CCc2cc(OCc3cccc(OC(F)(F)F)c3)ccc2C1 (stereo not drawn)

>  <pEC50>
5.00 to 6.00

$$$$
>  <compound>
COc1cccc(F)c1COc1ccc2c(c1)OCC(N1CC(C(=O)O)C1)C2 (stereo not drawn)

>  <pEC50>
5.00 to 6.00

$$$$
>  <compound>
CCc1cccc(Cl)c1COc1ccc2c(c1)CCC(OCC(=O)O)C2 (stereo not drawn) [Compound 142]

>  <pEC50>
> 8.00

$$$$
>  <compound>
Cc1ccc(F)c(COc2ccc3c(c2)CCC(OCC(=O)O)C3)c1F (stereo not drawn)

>  <pEC50>
5.00 to 6.00

$$$$
>  <compound>
O=C(O)COC1CCc2cc(OCc3ccccc3Cl)ccc2C1 (stereo not drawn)

>  <pEC50>
5.00 to 6.00

$$$$

Endpoint output: pEC50 of O=C(O)C1CN(C2COc3cc(OCc4cccc(C(F)(F)F)c4)ccc3C2)C1 (stereo not drawn) . Value?
6.00 to 7.00

Endpoint output: pEC50 of CC(NC1CCc2cc(OCc3c(Cl)cccc3Cl)ccc2C1)C(=O)O (stereo not drawn) . Value?
> 8.00

Endpoint output: pEC50 of CN(CCC(=O)O)C1CCc2cc(C#Cc3c(Cl)cccc3Cl)ccc2C1 (stereo not drawn) . Value?
> 8.00

Endpoint output: pEC50 of COc1ccc(COc2ccc3c(c2)CCC(OCC(=O)O)C3)cc1 (stereo not drawn) . Value?
5.00 to 6.00

Endpoint output: pEC50 of O=C(O)C1CN(C2COc3cc(OCc4ccccc4F)ccc3C2)C1 (stereo not drawn) . Value?
5.00 to 6.00

Endpoint output: pEC50 of O=C(O)CCNC1CCc2cc(/C=C/c3ccccc3)ccc2C1 (stereo not drawn) . Value?
7.00 to 8.00

Endpoint output: pEC50 of O=C(O)C1CN(C2COc3cc(C#Cc4c(Cl)cccc4Cl)ccc3C2)C1 (stereo not drawn) . Value?
7.00 to 8.00

Endpoint output: pEC50 of O=C(O)C12CC(NC3CCc4cc(OCc5c(Cl)cccc5Cl)ccc4C3)(C1)C2 (stereo not drawn) . Value?
> 8.00
